Provenance of the data: PubChem BioAssay

- test.system: Beta-adrenergic receptor kinase 1 (Homo sapiens)
- method.notes: GRK2 binders displacing RNA aptamer, biochemical, validation, human GRK2, bead flow cytometry (AID 488806)
- condition.info: bead-bound GRK2, FAM-aptamer displacement, at 10 µM, active compounds read high
measurement.name: aptamer binding inhibition (%)
I only need the number, in %, no unit after it.

Quick one: aptamer binding inhibition of O=C(Nc1ccc(N2CCOCC2)cc1)c1ccc(-c2ccccc2[N+](=O)[O-])o1 ?
5

Give the measured aptamer binding inhibition of COc1ccc(C2CC(c3ccc([N+](=O)[O-])cc3)=NN2C(=O)c2ccccc2)cc1OC (stereo not drawn) .
4

Entry CC12CN3CC(C)(CN(C1)C3c1ccc(Br)cc1O)C2 (stereo not drawn) : reported aptamer binding inhibition = ?
-3

Recorded aptamer binding inhibition of CC(=O)Oc1c2occc2cc2ccc(=O)oc12 , please.
3

So what does the record say about aptamer binding inhibition for Cc1ccc2c(c1)C1CN(C)CCC1N2S(=O)(=O)c1ccc(Oc2ccc([N+](=O)[O-])cc2)cc1 (stereo not drawn) ?
-7

Record request: aptamer binding inhibition value, item CCNC1=C(Cl)C(=O)c2ccccc2C1=O
3

aptamer binding inhibition lookup needed for COc1cccc2c1OCC1COc3c(c(=O)n(C)c(=O)n3C)C21 (stereo not drawn) , thanks.
-1

Record request: aptamer binding inhibition value, item N#C/C(=C/c1ccccc1)C(=O)NCc1ccccc1
0

# aptamer binding inhibition lookup, item CC1(C#CC[N+]2(C)CCCCC2)CCC2C(O1)c1ccccc1OC2(C)C (stereo not drawn)
-11

Item C[N+]1(C2CCC3CCCC2C3O)CCCCC1 (stereo not drawn) has what recorded aptamer binding inhibition?
1

What measured aptamer binding inhibition goes with COc1cc2c(cc1OC)C1(CCCC1)CNC2c1cccc([N+](=O)[O-])c1 (stereo not drawn) ?
-2

For the molecule shown here, Cc1oc2cc(O)cc(O)c2c(=O)c1-c1ccc2c(c1)OCCCO2 , give the reported aptamer binding inhibition.
3

Quick check: aptamer binding inhibition of C[C@]12CC[C@@H]3c4ccc(O)cc4CC[C@H]3[C@@H]1CC[C@@H]2O ?
1

Item Cc1[nH]c2ccccc2c1/C=C/c1nc2ccccc2c(=O)n1CCO has what recorded aptamer binding inhibition?
7

Bench note: what aptamer binding inhibition did COc1cc(C(=O)NCCc2c[nH]c3ccccc23)ccc1OCc1c(C)noc1C show?
0

Can you share its aptamer binding inhibition? I mean this molecule: CN(C)[C@@H]1C(=O)C(C(=O)NCN2CCCC2)=C(O)[C@@]2(O)C(=O)C3=C(O)c4c(O)cccc4[C@@](C)(O)C3CC12 (stereo partly drawn)
92

So what does the record say about aptamer binding inhibition for COc1cc(CNCCc2c[nH]c3ccccc23)cc(Cl)c1OCC(N)=O ?
-6

What measured aptamer binding inhibition goes with CCc1cc2c(=O)c(-c3nc(C)cs3)coc2cc1OC(C)C(=O)NCCO (stereo not drawn) ?
3

Entry CN(C)CCC=C1c2ccccc2CCc2ccccc21 : reported aptamer binding inhibition = ?
2

Query: aptamer binding inhibition; subject: Cc1ccc2ncnc(NCCCCCC(=O)O)c2c1
-1

If you can, please state the reported aptamer binding inhibition value of COc1cc2c(cc1OC)-c1cc(NC3CCCCCC3)nc(=O)n1CC2 .
0

Returns the measured aptamer binding inhibition for the input molecule. Input: CCCCOC(=O)c1ccc(N)cc1
-3

# get_value(readout='aptamer binding inhibition', item= C[C@@H]1CCC[C@H](C)N1NC(=O)c1ccc(Cl)c(S(N)(=O)=O)c1 )
-2

Entry CC[N+]1(C)CC2CCC(C)(C1)C2(C)C (stereo not drawn) : reported aptamer binding inhibition = ?
5

What does the record list as aptamer binding inhibition for O=C(O)COc1ccc2occ(C(=O)c3ccccc3)c2c1 ?
4

Can you look up the measured aptamer binding inhibition of NC(=O)c1cnccn1 for me?
9

What aptamer binding inhibition value was documented for this molecule, COc1ccc(C2NC(C(=O)O)Cc3c2[nH]c2ccccc32)cc1CN1CCN(c2ccc(F)cc2)CC1 (stereo not drawn) ?
-6

Field request: aptamer binding inhibition | item: COc1cc(C2NCCc3c2[nH]c2ccccc32)ccc1OC(C)C (stereo not drawn)
0

// lookup aptamer binding inhibition for Cc1cc(-c2nn(-c3ccccc3F)cc2CN2CCCC(O)C2)c(C)s1 (stereo not drawn)
-2

Recorded aptamer binding inhibition of CC(=O)Nc1nnc(S(N)(=O)=O)s1 , please.
5

Fill in the blank: the reported aptamer binding inhibition of COc1ccc(C(CC(=O)N2CCOCC2)C(C)C)cc1 (stereo not drawn) is ____.
3

Look up aptamer binding inhibition for this molecule: CCC(C)NCCOCCOc1ccc(Cl)cc1Br (stereo not drawn)
-7

Please look up its aptamer binding inhibition: CC(=O)OCC(=O)[C@@]1(O)[C@H](C)C[C@H]2[C@@H]3CCC4=CC(=O)C=C[C@]4(C)[C@@]3(F)[C@@H](O)C[C@@]21C
-2

Look at this molecule and give its reported aptamer binding inhibition. CC(C)=CCC/C(C)=C/CC/C(C)=N/O
4

Which aptamer binding inhibition is listed for COc1ccc(CCNc2ncnc3c2[nH]c2cc(OC)c(OC)cc23)cc1OC ?
2

Param item = CC(=O)SC1CC2=CC(=O)CCC2(C)C2CCC3(C)C(CCC34CCC(=O)O4)C12 (stereo not drawn) ; retrieve measured aptamer binding inhibition.
5

Quick check: aptamer binding inhibition of CC(CCCC(C)(C)O)NC(=O)c1ccc(OC2CCN(C(=O)C3CC3)CC2)cc1 (stereo not drawn) ?
1

aptamer binding inhibition for CC(=O)C1=C(O)C(=O)N(Cc2cccnc2)C1c1ccc(C(C)C)cc1 (stereo not drawn) ?
-1

Recorded aptamer binding inhibition for Cc1ccc(S(=O)(=O)N[C@@H](C)C(=O)N2CCC(C(=O)N3CCC[C@H]3C(=O)O)CC2)cc1 , please?
9

Reported aptamer binding inhibition, molecule CCCCC(=O)O[C@H]1CC[C@H]2[C@@H]3CCc4cc(O)ccc4[C@H]3CC[C@]12C : ____
-4

Item under review: C[C@]12CCC(=O)C=C1[C@H](O)C[C@@H]1[C@@H]2[C@@H](O)C[C@@]2(C)[C@H]1CC[C@]2(O)C(=O)CO . Reported aptamer binding inhibition?
2

Fill in the blank: the reported aptamer binding inhibition of CC1(C)CC(NCc2ccccc2)CCO1 (stereo not drawn) is ____.
0

Item COC(=O)c1ccc2c(c1)C(=O)/C(=C/c1ccc(O)cc1)O2 has what recorded aptamer binding inhibition?
2
